// provenance: ChEMBL document CHEMBL3046529

- Test system: Rhizoctonia solani
- METHOD DESCRIPTION: In vitro fungicidal activity against Rhizoctonia solani assessed as mycelial growth inhibition at 26 degC after 48 hr by agar diffusion assay
- Type: functional, organism-based
MEASURED ENDPOINT: EC50 (µM)

>>> df
                                   compound  numeric_readout
0          CCCC[C@@H](CCn1cncn1)c1ccc(F)cc1               49
1           CCCC[C@H](CCn1cncn1)c1ccc(F)cc1               36
2  CC(C)(C)C(=O)C(Oc1ccc(Cl)cc1)n1cncn1 (stereo not drawn) [TRIADIMEFON]               14
